# System: COLO 205 colon
# assay comment: NCI-60 one-dose screen, 48 h (100 = growth as untreated, 0 = no growth, -100 = all killed)
# condition label: 10 µM
This is part of a sample that, as a whole, favours compounds with a hit. Of some 83,000 tested, about 20% had one in any assay.
Give growth for every item shown.
Give the value, in units of %, as a plain number.

Report growth for O=c1oc2ccc(-c3ccc(F)cc3F)cc2c(=O)n1-c1ccc(F)cc1 please.
83.2

Then what about the compound O=C(N/C(=C1/OCCN1Cc1ccccc1)[P+](c1ccccc1)(c1ccccc1)c1ccccc1)c1ccccc1 ?
4.11

Then what about the compound CN(CCF)c1ccc(/C=C/C(=O)c2ccc(N)cc2O)cc1 ?
111

Then what about the compound COC1=C[C@@]23CCC(=O)N2CCc2cc4c(cc2[C@H]3[C@H]1OC(=O)C(C)(C)O)OCO4 ?
120

###

# Tested on: SF-295 CNS
# assay comment: NCI-60 one-dose screen, 48 h
# condition label: 10 µM
This is part of a sample that, as a whole, favours compounds with a hit. Of some 83,000 tested, about 20% had one in any assay. Active and inactive are the calls of the source. The calls were made as follows: active = growth percent below 10; inactive = the rest.
API: response.call in active, inactive

// return assay outcome for O=C(Cc1ccc2c(c1)CN(C1CCC(=O)NC1=O)C2=O)NCc1cccc2ccccc12 (configuration not stated)
active

Then what about the molecule Nc1nc2c(F)c(F)c(F)c(F)c2s1 ?
inactive

Then what about the molecule Brc1ccc(N/N=C/c2c[nH]c3ccccc23)nc1 ?
inactive

Then what about the molecule O=C(c1ccc(O)cc1)C1[C@H](c2ccccc2Br)[C@@H](c2ccccc2)NC12C(=O)Nc1ccc(Cl)cc12 (some centres not stated) ?
active

Then what about the molecule CC(=O)Nc1ccc(-c2cn(-c3cccc(C(=O)Nc4ccc(F)c(C(F)(F)F)c4)c3)nn2)cn1 ?
inactive

Then what about the molecule CN1C/C(=C\c2ccc(O)cc2O)c2[o+]c3cc(O)ccc3cc2C1 ?
inactive

Then what about the molecule Cc1ccc(F)cc1N/C=c1\s/c(=C(\C#N)C(=O)Nc2ccccc2)n(-c2ccccc2)c1=O ?
inactive

Then what about the molecule O=c1[nH][nH]c(Nc2ccccc2)c1N=Nc1ccc(F)cc1 ?
inactive

Then what about the molecule CN(C)c1cccc2c(S(=O)(=O)Nc3cccc(-c4csc(NC(=O)CCCCCN5CCN(c6cc7c(cc6F)C(=O)N(C6CCC(=O)NC6=O)C7=O)CC5)n4)c3)cccc12 (configuration not stated) ?
inactive

Then what about the molecule O=c1oc2ccc(-c3ccc(F)cc3F)cc2c(=O)n1-c1ccc(Cl)c(C(F)(F)F)c1 ?
active

Then what about the molecule Nc1cccnc1/C=N/NC(=S)NCCNC(=O)c1ccc(-n2nc(-c3ccccc3O)nc2-c2ccccc2O)cc1 ?
active

Then what about the molecule COc1ccc2cc([C@H](C)C(=O)NCc3ccccc3)ccc2c1 ?
inactive

###

# Tested on: SF-539 CNS
# assay comment: NCI-60 one-dose screen, 48 h
# condition label: 10 µM
This is part of a sample that, as a whole, favours compounds with a hit. Of some 83,000 tested, about 20% had one in any assay. Calls of active or inactive are those of the source. The calls were made as follows: active = growth percent below 10; inactive = the rest.
API: response.call in yes = active, no = inactive

// return assay outcome for COC(=O)C[C@](O)(CCCC(C)(C)O)C(=O)O[C@H]1C(OC)=C[C@@]23CCC(=O)N2CCc2cc4c(cc2[C@@H]13)OCO4
no

Then what about the molecule Brc1ccc(/C=N/Nc2ncnc3sc4c(c23)CCN(Cc2ccccc2)C4)cc1 ?
no

Then what about the molecule CN(CCO)c1oc(-c2ccccc2)nc1[P+](c1ccccc1)(c1ccccc1)c1ccccc1 ?
yes

Then what about the molecule CN1CCN(c2ccc(C(=O)/C=C/c3ccc(C#N)cc3)cc2)CC1 ?
no

Then what about the molecule COc1nccnc1NS(=O)(=O)c1ccc(NC2=C(Cl)C(=O)c3nc(C)ccc3C2=O)cc1 ?
no

Then what about the molecule Cc1ccc(NCC(=O)Nn2c(COc3ccccc3)nc3ccccc3c2=O)cc1 ?
no

Then what about the molecule O=C(CNc1nc(-c2ccccc2)cs1)Nc1ccc(Br)cc1 ?
yes

Then what about the molecule COC1CC(Cn2cc(COc3ccc4ccc(=O)oc4c3)nn2)C(OCc2ccccc2)C(OCc2ccccc2)C1OCc1ccccc1 (stereo not given) ?
no

Then what about the molecule N#Cc1c(NC(=O)c2ccc(C(O)(C(F)(F)F)C(F)(F)F)cc2)sc2c1CCC(=O)C2 ?
yes

Then what about the molecule CC(=O)Nc1ccc(-n2cnc3cc(-c4ccc(NS(C)(=O)=O)cc4)ccc32)cc1 ?
no

Then what about the molecule CCCn1c(O)c(N=Nc2nc(-c3cc4ccccc4oc3=O)cs2)c2cc(Br)ccc21 ?
no

Then what about the molecule Cc1ccc(C(=O)NCCCNc2nc(Nc3ccc(N4CCN(C)CC4)cc3)nc3ccsc23)cc1 ?
yes

Then what about the molecule Cc1cc(=O)oc2cc(OCCCCOc3ccc(/C=C/C(=O)Nc4ccccc4[N+](=O)[O-])cc3)ccc12 ?
no

Then what about the molecule CCCCOc1ccc(Nc2nc3ccccc3nc2Nc2ccc(OCCCC)cc2)cc1 ?
no

Then what about the molecule O=C(Nc1nc2ccc([N+](=O)[O-])cc2s1)Nc1cc(Cl)ccc1I ?
yes

Then what about the molecule N#Cc1c(-c2ccc(F)cc2)nc(SCc2ccc(F)cc2)nc1N1CCOCC1 ?
no

Then what about the molecule Cn1c(O)c(N=Nc2nc(-c3cc4ccccc4oc3=O)cs2)c2cc(Br)ccc21 ?
yes

Then what about the molecule O=C1NC(=NC23CC4CC(CC(C4)C2)C3)N/C1=C\c1ccc2ncoc2c1 ?
yes

Then what about the molecule N#Cc1c(NC(=O)c2cccc(C(F)(F)F)c2)sc2c1CCC(O)=C2 ?
no

Then what about the molecule O=C(CSc1nnc(-c2ccc3nc(-c4ccccc4)[nH]c3c2)o1)Nc1ccc(Br)cc1 ?
yes

Then what about the molecule C=CCn1c(SCC(=O)Nc2ccc(C(=O)/C=C/c3ccccc3)cc2)nnc1-c1c[nH]c2ccccc12 ?
yes

Then what about the molecule CCN1CCN(c2ccc(NC(=O)Nc3ccc4c(c3F)CCN4c3ccnc(C(=O)NC)c3)cc2C(F)(F)F)CC1 ?
yes

Then what about the molecule COc1ccc(CN2[C@@H](C(=O)NCc3ccc(C(=O)NO)cc3)Cc3c([nH]c4ccccc34)[C@@H]2C)cc1 ?
no

Then what about the molecule O=c1[nH]c2ccc(Cl)cc2cc1CSc1ccc(Nc2nccc(-c3ccc(Cl)cc3)n2)cc1 ?
no

Then what about the molecule O=C(c1ccc(O)cc1)C1[C@H](c2ccccc2Br)[C@@H](c2ccccc2)NC12C(=O)Nc1ccc(Cl)cc12 (stereo not given in full) ?
yes

###

# Tested on: SNB-19 CNS
# assay comment: NCI-60 one-dose screen, 48 h (100 = growth as untreated, 0 = no growth, -100 = all killed)
# condition label: 10 µM
This is part of a sample that, as a whole, favours compounds with a hit. Of some 83,000 tested, about 20% had one in any assay.
The label depends only on growth: class 1 if it is at least 70%, class 0 if it is smaller.

Does the reported growth for Cc1ccc(/C(N)=N/c2sc(-c3ccccc3)nc2-c2ccccc2)cc1 fall at or above the 70% mark?
class 1

Then what about the molecule CC(C)CCSc1nc(NC2CC2)c(C#N)c(-c2ccc(C(C)C)cc2)n1 ?
class 1

Then what about the molecule CC(=O)Oc1ccccc1C(=O)Oc1ccc(C(=O)/C=C/c2ccncc2)cc1 ?
class 0

Then what about the molecule O=c1c2ccccc2nc(COc2ccccc2)n1/N=C/c1ccc(F)cc1 ?
class 1

Then what about the molecule O=C(NO)c1ccc(CNc2nc(-c3ccccc3)c3ccccc3n2)cc1 ?
class 0

Then what about the molecule O=C1N/C(=N\c2nccs2)S/C1=C\c1cccs1 ?
class 0

Then what about the molecule COc1cccc(-c2nn(-c3ccccc3)cc2-c2ccnc(NCCCNC(=O)Nc3ccc(F)cc3)c2)c1 ?
class 0

Then what about the molecule CN1C(=O)N(C)C2SC(N/N=C/c3ccccc3F)=NC21 (configuration not stated) ?
class 0

Then what about the molecule CCN(CC)CCOc1ccc(C(=C(C)c2ccccc2)c2ccc(OCCN(CC)CC)cc2)cc1 ?
class 0

Then what about the molecule CC1(c2ccccc2)NC(=O)N(CC(=O)Nc2ccc(C(=O)/C=C/c3ccc(Br)cc3)cc2)C1=O (configuration not stated) ?
class 0

Then what about the molecule Cc1cc(C)nc(NS(=O)(=O)c2ccc(N/C(N)=N/c3nccc(-c4cccs4)n3)cc2)n1 ?
class 1

Then what about the molecule O=C(Cn1nc(-c2ccccc2)ccc1=O)NNC(=S)NC1CCCCC1 ?
class 1

Then what about the molecule CCCCSc1nc(Nc2ccc(/C(C)=N/NC(N)=S)cc2)c(C#N)c(-c2ccccc2)n1 ?
class 0

Then what about the molecule O=C(CNc1nc(-c2ccccc2)cs1)Nc1cccc([N+](=O)[O-])c1 ?
class 0

Then what about the molecule Cc1ccc(-c2ccc(SCC(=O)Nc3ccc(S(N)(=O)=O)cc3Br)nn2)cc1 ?
class 0

Then what about the molecule Cc1ccc([N+](=O)[O-])c(C(=O)Nc2ccc(-c3ccc4c(c3)NC(=O)/C4=C\c3ccc[nH]3)cc2)c1 ?
class 0

Then what about the molecule COc1ccc(C(=O)/C=C/c2cc(F)cc(C(F)(F)F)c2)cc1S(N)(=O)=O ?
class 0

Then what about the molecule O=C(CSc1nnc(-c2c[nH]c3ccccc23)n1-c1ccccc1)Nc1ccc(C(=O)/C=C/c2ccc(Cl)cc2)cc1 ?
class 1

Then what about the molecule CCCCCCCCCCCCCCCCCCCC(=O)NCCc1c[nH]c2ccc(O)cc12 ?
class 1

Then what about the molecule Cc1ccc(-c2cc(C(=O)N=Nc3c(O)[nH]c4ccccc34)c3ccccc3n2)cc1 ?
class 0

Then what about the molecule COc1ccccc1NCc1ccc(CO)n1-c1ccc(C)cc1 ?
class 1
